TARGET DESC: GCN2_T
ASSAY METHOD TEXT: two-hybrid library CCmax;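 note: natural log of median RNA to DNA barcode read ratio; higher means stronger binding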
OBSERVATION TYPE: interaction score
Answers are plain numbers.

BINDER | OBSERVATION TYPE | OBSERVED
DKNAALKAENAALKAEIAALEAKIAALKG [4H3782-AA] | interaction score | -1.87
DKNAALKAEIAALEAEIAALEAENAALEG [4H3587-AA] | interaction score | -2.29
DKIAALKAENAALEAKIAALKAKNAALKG [4H2736-AA] | interaction score | -0.66

For each of the items listed, what is its interaction score?
1. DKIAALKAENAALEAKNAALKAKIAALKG [4H2750-AA]
2. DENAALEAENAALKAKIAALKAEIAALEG [4H1257-AA]
3. DEIAALEAEIAALEAKNAALEAKNAALKG [4H56-AA]
4. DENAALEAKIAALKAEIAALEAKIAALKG [4H1350-AA]
5. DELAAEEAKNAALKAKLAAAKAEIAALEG [AP7-AA]
6. DKNAALKAEIAALKAEIAALEAENAALEG [4H3651-AA]
7. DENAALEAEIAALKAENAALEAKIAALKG [4H1110-AA]

Response:
-1.81
-1.92
-1.38
-1.41
-2.13
-1.92
-0.988

Just for reference, paper PMC10397247 is where these values come from.
